System: HIV
method.summary: microbe, parasite or virus in culture
Assay type: cell-based
settings: Human immunodeficiency virus 1, MT4; HIV-infected MT-4 cells, MTT method, 4 or 5 days at 37° C.; read-out: ED50 (the source's name)
measure.name: EC50 (µg/mL)
Answers are plain numbers, in µg/mL.

Could you tell me EC50 for each of these molecules? They are listed below.
1. Cc1cc(C)cc(Oc2c(C(C)C)c(=O)[nH]c(=O)n2CC2CCC2)c1
2. CCc1c(Sc2cc(C)cc(C)c2)n(Cc2ccc(OC(F)(F)F)cc2)c(=O)[nH]c1=O
3. Cc1cc(C)cc(C(=O)c2c(C(C)C)c(=O)[nH]c(=O)n2Cc2ccccc2C#N)c1
4. Cc1cc(C)cc(C(=O)c2c(C(C)C)c(=O)[nH]c(=O)n2Cc2ccc3ccccc3n2)c1

1: 0.0147; 2: 0.017; 3: 0.005; 4: 0.0097

----------
Would you kindly list melting point for each of these molecules?

Using the record for CCc1c(Oc2cc(C)cc(C)c2)n(Cc2cc(C(F)(F)F)cc(C(F)(F)F)c2)c(=O)[nH]c1=O [Example 63] , state its measured melting point.
183 to 185 °C

Could you tell me melting point for each of these molecules? They are listed below.
1. CCc1c(C(=O)c2cc(C)cc(C)c2)n(Cc2cccc(OC)c2)c(=O)[nH]c1=O [Example 29]
2. Cc1cc(C)cc(Sc2c(C(C)C)c(=O)[nH]c(=O)n2Cc2nc3ccccc3o2)c1 [Example 146]
3. CCc1c(C(=O)c2cc(C)cc(C)c2)n(CC2CCC2)c(=O)[nH]c1=O [Example 11]

185 to 187 °C
107 to 109 °C
200 to 202 °C

----------
measure.name: melting point

Field: example entries. Status: answers known.
Using the record for CCc1c(Oc2cc(C)cc(C)c2)n(Cc2c3ccccc3cc3ccccc23)c(=O)[nH]c1=O , state its measured melting point.
243 to 245 °C

Using the record for Cc1cc(C)cc(Sc2c(C(C)C)c(=O)[nH]c(=O)n2Cc2ccc3ccccc3n2)c1 , state its measured melting point.
181 to 183 °C

Using the record for CCc1c(Oc2cc(C)cc(C)c2)n(Cc2nc3ccccc3o2)c(=O)[nH]c1=O , state its measured melting point.
121 to 123 °C

Using the record for Cc1cc(C)cc(C(=O)c2c(C(C)C)c(=O)[nH]c(=O)n2CC2CCCCC2)c1 , state its measured melting point.
160 to 162 °C

Using the record for Cc1cc(C)cc(Oc2c(C(C)C)c(=O)[nH]c(=O)n2Cc2cc(C(F)(F)F)cc(C(F)(F)F)c2)c1 , state its measured melting point.
182 to 183 °C

Using the record for Cc1cc(C)cc(C(=O)c2c(C(C)C)c(=O)[nH]c(=O)n2CC2CCC2)c1 , state its measured melting point.
171 to 173 °C

Could you tell me melting point for each of these compounds? They are listed below.
1. CCc1c(Oc2cc(C)cc(C)c2)n(Cc2cc(F)cc(F)c2)c(=O)[nH]c1=O
2. CCc1c(Sc2cc(C)cc(C)c2)n(Cc2cc(C)cc(C)c2)c(=O)[nH]c1=O

1: 178 to 180 °C; 2: 180 to 182 °C

----------
measure.name: melting point

Field: example entries. Status: answers known.
Using the record for Cc1cc(C)cc(Sc2c(C(C)C)c(=O)[nH]c(=O)n2Cc2cc(Br)cc(Br)c2)c1 , state its measured melting point.
225 to 226 °C

Using the record for CCc1c(C(=O)c2cc(C)cc(C)c2)n(Cc2cc(F)ccc2F)c(=O)[nH]c1=O , state its measured melting point.
135 to 137 °C

Using the record for CCc1c(Sc2cc(C)cc(C)c2)n(Cc2cc(C(F)(F)F)cc(C(F)(F)F)c2)c(=O)[nH]c1=O , state its measured melting point.
212 to 213 °C

Using the record for Cc1cc(C)cc(Sc2c(C(C)C)c(=O)[nH]c(=O)n2Cc2cccc(C#N)c2)c1 , state its measured melting point.
186 to 188 °C

Could you tell me melting point for each of these molecules? They are listed below.
1. COc1cccc(Cn2c(C(=O)c3cc(C)cc(C)c3)c(C(C)C)c(=O)[nH]c2=O)c1
2. CCc1c(Oc2cc(C)cc(C)c2)n(Cc2cccc(C#N)c2)c(=O)[nH]c1=O

1. 184 to 186 °C
2. 213 to 214 °C

Could you tell me melting point for each of these molecules? They are listed below.
1. CCc1c(C(=O)c2cc(C)cc(C)c2)n(CC2CCCCC2)c(=O)[nH]c1=O
2. Cc1cc(C)cc(C(=O)c2c(C(C)C)c(=O)[nH]c(=O)n2Cc2cccnc2)c1

["177 to 179 °C", "178 to 180 °C"]

----------
measure.name: melting point

Field: example entries. Status: answers known.
Using the record for Cc1cc(C)cc(C(=O)c2c(C(C)C)c(=O)[nH]c(=O)n2Cc2cccc(Br)n2)c1 , state its measured melting point.
218 to 220 °C

Using the record for Cc1cc(C)cc(Oc2c(C(C)C)c(=O)[nH]c(=O)n2Cc2cc(F)ccc2F)c1 , state its measured melting point.
214 to 216 °C

Using the record for CCc1c(Sc2cc(C)cc(C)c2)n(Cc2cccc(Cl)n2)c(=O)[nH]c1=O , state its measured melting point.
145 to 148 °C

Could you tell me melting point for each of these molecules? They are listed below.
1. Cc1cc(C)cc(C(=O)c2c(C(C)C)c(=O)[nH]c(=O)n2Cc2cc(F)cc(F)c2)c1
2. Cc1cc(C)cc(C(=O)c2c(C(C)C)c(=O)[nH]c(=O)n2Cc2ccc(OC(F)(F)F)cc2)c1

["207 to 209 °C", "79 to 81 °C"]

Could you tell me melting point for each of these molecules? They are listed below.
1. CCc1c(C(=O)c2cc(C)cc(C)c2)n(Cc2c3ccccc3cc3ccccc23)c(=O)[nH]c1=O
2. Cc1cc(C)cc(Oc2c(C(C)C)c(=O)[nH]c(=O)n2Cc2cccc(Br)n2)c1
3. CCc1c(Sc2cc(C)cc(C)c2)n(Cc2cc(Cl)cc(Cl)c2)c(=O)[nH]c1=O

["270 to 272 °C", "228 to 230 °C", "180 to 182 °C"]

----------
System: mock-infected MT-4 cells
method.summary: Cytotoxicity based on viability of mock-infected host cells (MTT method)
Assay type: cell-based
settings: mock-infected MT-4 cells, MTT method, 4 or 5 days at 37° C.
Each record is given 1 if its reported CD50 is strictly below 10 µg/mL. Records at or above 10 µg/mL are given -1.

Study these solved cases before continuing.
Is it true that CD50 reported for CCc1c(C(=O)c2cc(C)cc(C)c2)n(Cc2cc(Br)cc(Br)c2)c(=O)[nH]c1=O [Example 89] is less than 10 µg/mL?
1

Is it true that CD50 reported for Cc1cc(C)cc(C(=O)c2c(C(C)C)c(=O)[nH]c(=O)n2Cn2nnc3ccccc32)c1 [Example 144] is less than 10 µg/mL?
1

Is it true that CD50 reported for CCc1c(C(=O)c2cc(C)cc(C)c2)n(Cc2cccnc2)c(=O)[nH]c1=O [Example 119] is less than 10 µg/mL?
-1

Is it true that CD50 reported for CCc1c(Oc2cc(C)cc(C)c2)n(Cc2cc(C)cc(C)c2)c(=O)[nH]c1=O [Example 51] is less than 10 µg/mL?
1

Is it true that CD50 reported for Cc1cc(C)cc(Oc2c(C(C)C)c(=O)[nH]c(=O)n2Cc2cc(Cl)cc(Cl)c2)c1 [Example 82] is less than 10 µg/mL?
-1

Next:
Is it true that CD50 reported for Cc1cc(C)cc(Oc2c(C(C)C)c(=O)[nH]c(=O)n2Cc2cc(F)cc(F)c2)c1 [Example 76] is less than 10 µg/mL?
-1

----------
Would you kindly list melting point for each of these compounds?

Field: example entries. Status: answers known.
Using the record for Cc1cc(C)cc(Oc2c(C(C)C)c(=O)[nH]c(=O)n2Cc2ccccc2C#N)c1 , state its measured melting point.
276 to 278 °C

Using the record for Cc1cc(C)cc(Oc2c(C(C)C)c(=O)[nH]c(=O)n2Cc2ccc3ccccc3n2)c1 , state its measured melting point.
246 to 248 °C

Using the record for CCc1c(Oc2cc(C)cc(C)c2)n(Cc2cc(OC)cc(OC)c2)c(=O)[nH]c1=O , state its measured melting point.
154 to 156 °C

Using the record for Cc1cc(C)cc(Oc2c(C(C)C)c(=O)[nH]c(=O)n2Cc2cc(F)cc(F)c2)c1 , state its measured melting point.
186 to 189 °C

Using the record for COC(=O)c1ccoc1Cn1c(Sc2cc(C)cc(C)c2)c(C(C)C)c(=O)[nH]c1=O , state its measured melting point.
135 to 137 °C

Could you tell me melting point for each of these compounds? They are listed below.
1. COC(=O)c1ccoc1Cn1c(C(=O)c2cc(C)cc(C)c2)c(C(C)C)c(=O)[nH]c1=O
2. CCc1c(C(=O)c2cc(C)cc(C)c2)n(Cc2cc(C(F)(F)F)cc(C(F)(F)F)c2)c(=O)[nH]c1=O

["180 to 183 °C", "241 to 243 °C"]

Using the record for CCc1c(Oc2cc(C)cc(C)c2)n(Cc2ccccc2C#N)c(=O)[nH]c1=O , state its measured melting point.
267 to 270 °C
